B1: HDV Ribozyme (parent)
chain: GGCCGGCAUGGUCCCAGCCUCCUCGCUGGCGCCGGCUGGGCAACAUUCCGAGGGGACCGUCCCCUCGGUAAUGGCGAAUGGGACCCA

# Variants of: B1
# procedureText: self-cleavage, relative activity (ratio to wild type); higher = more cleavage; co-transcriptional
Threshold check on self-cleavage: at or above 0.1 gives true, strictly below gives false.

Known results for variants:
- mutationAnnotation: "A8U U65A"
  answerLabel: "true"
- mutationAnnotation: "G11U G73C"
  answerLabel: "true"
- mutationAnnotation: "U60A G80C"
  answerLabel: "false"

Turning now to a further variant:
Query: Please tell me: is the variant C63U C84A at or over 0.1 in terms of self-cleavage?
Response: true
